Tested on: MS2 coat protein
Assay explanation: apparent KD of MS2 coat protein; higher = weaker reporter binding
Study conditions: Eterna round: R107; input ligand: arginine 13.2 mM
Property: apparent KD of MS2 coat protein (nM)
Lab book: enter the figure in nM, no units written.

### Prompt Look up apparent KD of MS2 coat protein for this sequence: AUAACAGUGUCGGCCGCCACUAGAACACAUGAGGAUCACCCAUGUGGUGGUACCUCCUAAGACGAUAGGACCGGGACCCAUCUAC [theeternabot_exclusion_MS2_Trp_B_12]
### Response 50.4

### Prompt Moving on to ACAUGAGGAUCACCCAUGUUUGAUGUUCCUCGAGGACCGGUACGGCCGCCACUCGAACGAGUGGCGCGCGCGCGCGCGCGCGCGC [aQa]
### Response 10.9

### Prompt Moving on to ACCUGUACGAAAAGUGCAGGACACGGAAUACGAGGACCGGUACGGCCGCCACUCGGAAUAACCUGAGGAUCACCCUGGUACCGUG [TrypAS 10 #AlternativeMS2 #Zipper #StaticStem]
### Response 25.8
